Target: T1, IL-11 (Cat. 12225-HNCE, Sino Biological Inc.) (UniProt P20809 22-199, limits assumed)
T1 sequence (looked up): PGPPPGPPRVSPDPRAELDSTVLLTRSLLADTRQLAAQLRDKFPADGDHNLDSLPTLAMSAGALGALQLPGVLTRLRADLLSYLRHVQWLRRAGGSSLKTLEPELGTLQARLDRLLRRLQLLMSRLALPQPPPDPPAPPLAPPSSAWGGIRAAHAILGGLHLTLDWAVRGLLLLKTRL
Test: competition ELISA, IL-11/IL-11Rα/GP130 complex
Experimental: The activity of the recombinant murine anti-IL-11 antibodies for blocking the formation of IL-11/IL-11Rα/GP130 complex was analyzed via competition ELISA. IL-11Rα-His (NP_004503.1, Met1-Val363, C-terminus-6-His Tag) was firstly added into ELISA plates to be coated overnight. Next day, samples were prepared as follows. […] After co-incubating and washing, an HRP conjugated anti-human Fc secondary antibody was added to develop the color which was then detected. […]
RECORDED_ENDPOINT: IC50

BINDER: hz8C8-VHm5 + hz8C8-VLm7 (antibody, human IgG1, kappa, V domains shown, human IgG1 constant regions) VH: EVQLVESGGGLVQPGGSLRLSCAASGFTFSSFGMSWVRQAPGKGLEWVAYITPGSNTIYYADTVKGRFTISRDNAKNSLYLQMNSLRAEDTAVYYCAREYYSYDEGFAYWGQGTLVTVSS VL: EIVLTQSPATLSLSPGERATLSCSVSDLIPSQYLHWYQQKPGQAPRLLIYRTSNLASGIPARFSGSGSGTDFTLTISSLEPEDFAVYYCQQGVDVPFTFGQGTKLEIKR
READING: 0.65 µg/mL
